target: T1, cynomolgus (cyno) TMEM106B (cynomolgus, UniProt Q9NUM4 2-274 (human entry)); assay: flow cytometry, HEK293 cells transiently transfected with cyno TMEM106B
T1 construct: Full-length cDNA transiently transfected into HEK293 cells
We begin with a simple list: items and their reported fold-change in binding over parental HEK293 cells.
Please respond with the number in fold and leave the unit unwritten.

binder | observed.result
TM-64 (antibody, V domains shown, Purified from mouse hybridoma) VH: QVQLQQPGAELVKPGASVKLSCKASGYTFTSYWMHWVKQRPGHGLEWIGNIDPSDSDTHYNQNFRGKATLTVDKFSTTAYMHLSSLTSEDSAVYYCARSRGGTYDYGEAMDYWGQGTSVTVSS VL: DIVMTQAAPSVPVTPGESVSISCRSSKSLLHTNGNTYLFWFLQRPGRSPQLLIYRMSNLASGVPDRFSGSGSGTAFTLRISRVEAEDVGVYYCMQHLEYPFTFGSGTKLEIK | 7.12

Input line: // lookup fold-change in binding over parental HEK293 cells for TM-84 (antibody, V domains shown, Purified from mouse hybridoma) VH: QVQLQQSGAELVKPGASVKMSCKASGYTFTTFPIEWMKQNHGKSLEWIGNFHPYNDDTKYNEKFKGKATLTVEKSSSTVYLELSRLTSDDSAVYYCARYFYGGMDYWGQGTSVTVSS VL: DIQMTQSPASLSVSVGETVTITCRASENIYSSLGWYHQKQGKSPQLLVFAATNLADGVPSRFSGSGSGTQYSLKINSLQSEDFGTYYCQHLWSVPWTFGGGTKLEIK
Output line: 8.43

Input line: One more binder: TM-88 (antibody, V domains shown, Purified from mouse hybridoma) VH: EAQLQQSGPVLVKPGASVKMSCKTSGYTFTDYYINWVKQSHGKSLEWIGVINPYSGATYYTQKFKGKATLTVDKSSSTAYMELNSQTSEDSAVYYCARGGYDYGHWYFDVWGTGTTVTVSS VL: ETTVTQSPASLSMAIGEKVTIRCITSSDIDDHMNWYRQKPGEPPEFLISEGNALRPGVPSRFSSSGYGTDFIFTIENILSEDVADYYCLQSDNLPLTFGAGTKLELK
Output line: 7.57

Input line: One more binder: TM-73 (antibody, V domains shown, Purified from mouse hybridoma) VH: QVQLQQPGAELVKPGASVKLSCKASGYTFTSHWMHWVKHRPGQGLEWIGEIDPSDSYTYYNQKFKGKATLTVDKSSSTVYMQLSSLTSEDSAVYYCARNYHGSGPPFAHWGQGTLVTVSS VL: QIVLTQSPAIMSASPGEKVTLTCSASSGISYIYWYQQRPGSSPRLLIYDTSNLASGVPVRFSGSGSETSYSLTISRLEAEDAATYYCHQWRSYPPTFGGGTKLEIR
Output line: 1.15

Input line: One more binder: TM-65 (antibody, V domains shown, Purified from mouse hybridoma) VH: QVQLQQPGAEFVKPGASVRLSCKTSGYTFTSSWMHWVKQRPGQGLEWIGEINPKNGGTNYNEKFKTKATLTVDKSSNTAYMQLSSLTSEDSAVYYCTIPTWFTYWGQGTLVTVSS VL: DIQMNQSPSSLSASLGDTITITCRASQNINIWLSWYQQKPGNVPKLLIYKASNLHTGVPSRFSGSGSGTGFTLTISSLQPEDIATYYCLQGQSYPYTFGGGTKLGIK
Output line: 2.15

FYI, the data here is from patent US20240174746A1.
